target: human αVβ6 (Homo sapiens, UniProt P06756+P18564); test: human αVβ6 HTRF binding assay; details: alternatively SPA-based assay
Sequence (P18564 22-707 limits assumed, one chain of several): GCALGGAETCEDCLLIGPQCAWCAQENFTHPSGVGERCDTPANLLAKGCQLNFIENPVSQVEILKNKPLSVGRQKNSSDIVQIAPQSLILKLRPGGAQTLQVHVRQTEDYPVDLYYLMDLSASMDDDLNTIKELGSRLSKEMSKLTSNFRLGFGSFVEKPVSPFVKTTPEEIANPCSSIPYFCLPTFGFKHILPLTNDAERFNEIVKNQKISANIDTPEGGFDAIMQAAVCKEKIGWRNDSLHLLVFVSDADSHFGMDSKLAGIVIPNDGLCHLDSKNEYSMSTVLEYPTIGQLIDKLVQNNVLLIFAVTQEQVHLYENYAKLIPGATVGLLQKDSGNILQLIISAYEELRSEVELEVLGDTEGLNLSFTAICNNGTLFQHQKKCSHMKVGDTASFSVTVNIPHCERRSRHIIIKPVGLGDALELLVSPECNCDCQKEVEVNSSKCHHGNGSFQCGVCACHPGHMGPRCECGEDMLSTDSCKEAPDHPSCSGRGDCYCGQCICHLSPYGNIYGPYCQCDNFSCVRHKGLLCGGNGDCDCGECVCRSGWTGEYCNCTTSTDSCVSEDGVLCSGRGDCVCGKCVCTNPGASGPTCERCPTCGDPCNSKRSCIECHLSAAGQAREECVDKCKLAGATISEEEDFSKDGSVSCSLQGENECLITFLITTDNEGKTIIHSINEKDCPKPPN
Hi there, I'd appreciate the recorded IC50 for every entry that follows.
Write the answer as a number in nM, unit excluded.

Write down the reported IC50 of COc1ccc([C@H](CC(=O)O)N2CC(CCCCc3ccc4c(n3)NCCC4)C2=O)cn1 (stereo partly shown) [Example 9] , test system: human αVβ6 (Homo sapiens, UniProt P06756+P18564).
1.9

# value lookup — system human αVβ6 (Homo sapiens, UniProt P06756+P18564), readout IC50, item COc1ccc([C@H](CC(=O)O)N2CC(CCCCc3ccc4c(n3)NCCC4)C2)cc1F [Example 27]
0.58

Quick check: IC50 on human αVβ6 (Homo sapiens, UniProt P06756+P18564), item O=C(O)C[C@H](NC(=O)N1CC(CCc2ccc3c(n2)NCCC3)C1)c1cnc2ccccc2c1 [Example 96] ?
1.9

Notebook entry, human αVβ6 (Homo sapiens, UniProt P06756+P18564) assay: IC50 of O=C(O)[C@H](CN1CC(CCCc2ccc3c(n2)NCCC3)C1=O)NS(=O)(=O)c1ccc(F)cc1 (single isomer, unassigned) [Example 187] = ?
24

Missing value: IC50, human αVβ6 (Homo sapiens, UniProt P06756+P18564), entry O=C(O)C[C@H](NC(=O)C1CC2(C1)CN(CCc1ccc3c(n1)NCCC3)C2)c1cc(Cl)cc(Cl)c1 [Example 33] . Fill in?
2.7

API: value(readout=IC50, system=human αVβ6 (Homo sapiens, UniProt P06756+P18564)) for record COc1ccc(C(CC(=O)O)N2CC3(CC(Cc4ccc5c(n4)NCCC5)C3)C2)cc1F (stereo not shown) [Example 210]
5.6

Tell me reported IC50 for Cc1cc(C)c(S(=O)(=O)N[C@@H](CNC(=O)C2CC3(C2)CN(CCc2ccc4c(n2)NCCC4)C3)C(=O)O)c(C)c1 [Example 35] , tested with human αVβ6 (Homo sapiens, UniProt P06756+P18564).
2.7

----------
biological target: human αVβ5 (Homo sapiens, UniProt P06756+P18084); assay: human αVβ5 HTRF binding assay; details: alternatively SPA-based assay
Sequence (P06756 31-992 limits assumed): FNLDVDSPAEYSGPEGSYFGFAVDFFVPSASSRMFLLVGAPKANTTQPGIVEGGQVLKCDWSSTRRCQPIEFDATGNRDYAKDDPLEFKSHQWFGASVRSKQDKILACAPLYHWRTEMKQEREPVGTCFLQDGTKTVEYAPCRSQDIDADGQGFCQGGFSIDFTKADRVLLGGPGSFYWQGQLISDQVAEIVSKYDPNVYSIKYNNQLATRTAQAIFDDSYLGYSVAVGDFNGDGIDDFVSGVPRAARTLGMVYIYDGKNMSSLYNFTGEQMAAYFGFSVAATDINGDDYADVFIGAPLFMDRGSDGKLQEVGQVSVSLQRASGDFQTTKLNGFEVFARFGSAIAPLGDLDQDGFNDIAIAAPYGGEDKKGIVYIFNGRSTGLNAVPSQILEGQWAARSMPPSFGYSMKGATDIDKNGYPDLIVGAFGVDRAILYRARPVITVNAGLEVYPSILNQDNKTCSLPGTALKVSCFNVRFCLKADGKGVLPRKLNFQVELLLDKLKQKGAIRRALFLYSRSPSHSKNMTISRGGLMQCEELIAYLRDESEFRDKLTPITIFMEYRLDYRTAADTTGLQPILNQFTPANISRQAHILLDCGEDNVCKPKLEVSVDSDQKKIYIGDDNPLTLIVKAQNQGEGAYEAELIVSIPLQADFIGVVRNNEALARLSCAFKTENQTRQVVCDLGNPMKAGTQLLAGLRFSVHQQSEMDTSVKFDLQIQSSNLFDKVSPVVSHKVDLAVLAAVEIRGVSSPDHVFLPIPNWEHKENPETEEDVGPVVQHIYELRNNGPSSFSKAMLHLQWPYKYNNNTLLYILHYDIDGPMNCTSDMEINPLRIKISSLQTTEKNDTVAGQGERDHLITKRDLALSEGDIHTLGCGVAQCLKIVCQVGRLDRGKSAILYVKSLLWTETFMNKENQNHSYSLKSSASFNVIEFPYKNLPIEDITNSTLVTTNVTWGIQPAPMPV
Sequence (P18084 24-719 limits assumed): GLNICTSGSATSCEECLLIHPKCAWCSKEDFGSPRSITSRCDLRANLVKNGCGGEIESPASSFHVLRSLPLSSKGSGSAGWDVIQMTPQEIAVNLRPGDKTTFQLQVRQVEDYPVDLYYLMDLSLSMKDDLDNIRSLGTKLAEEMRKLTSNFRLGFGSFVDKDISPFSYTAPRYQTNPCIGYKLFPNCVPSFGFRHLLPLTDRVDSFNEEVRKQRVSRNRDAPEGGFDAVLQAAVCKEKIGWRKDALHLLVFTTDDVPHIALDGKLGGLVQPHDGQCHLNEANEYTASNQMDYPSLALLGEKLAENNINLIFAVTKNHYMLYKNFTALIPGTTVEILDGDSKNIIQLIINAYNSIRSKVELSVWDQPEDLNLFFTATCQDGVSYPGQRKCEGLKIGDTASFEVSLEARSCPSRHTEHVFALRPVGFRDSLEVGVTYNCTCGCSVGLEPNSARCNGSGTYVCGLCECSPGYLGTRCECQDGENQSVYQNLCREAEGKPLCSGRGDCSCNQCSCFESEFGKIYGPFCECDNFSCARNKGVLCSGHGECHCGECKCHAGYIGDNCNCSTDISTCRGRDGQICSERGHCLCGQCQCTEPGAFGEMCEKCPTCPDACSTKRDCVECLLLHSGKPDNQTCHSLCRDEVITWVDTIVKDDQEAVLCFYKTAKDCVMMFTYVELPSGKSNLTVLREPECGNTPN
What IC50 was measured for each of the following?
# value in nM; strip the unit string

Reported IC50 for human αVβ5 (Homo sapiens, UniProt P06756+P18084), given COc1ccc([C@H](CC(=O)O)NC(=O)N2CC(CCc3ccc4c(n3)NCCC4)C2)cn1 ?
7.7

Recorded IC50 for O=C(O)C[C@H](NC(=O)[C@H]1C[C@H](CCc2ccc3c(n2)NCCC3)C1)c1cnc2ccccc2c1 with human αVβ5 (Homo sapiens, UniProt P06756+P18084), please?
41

Lab note: need IC50 for COc1ccc([C@H](CC(=O)O)N2CC(CCCCc3ccc4c(n3)NCCC4)C2=O)cn1 (stereo partly shown) on human αVβ5 (Homo sapiens, UniProt P06756+P18084), anyone have it?
1.2

What reported IC50 corresponds to O=C(O)C[C@H](NC(=O)[C@H]1C[C@H](CCc2ccc3c(n2)NCCC3)C1)c1ccc2c(c1)OCC2 on human αVβ5 (Homo sapiens, UniProt P06756+P18084)?
1

----------
Target: human αVβ6 (Homo sapiens, UniProt P06756+P18564)
Experiment: human αVβ6 HTRF binding assay
Conditions: alternatively SPA-based assay
Text: All binding assays used the HTRF (homogeneous time resolved fluorescence) technology from Cisbio International, therefore all assays are described as HTRF binding assays. The assay results for the Examples are listed above together with the characterization data. The HTRF binding assays are established for the following integrins: human αVβ6, human αVβ1, human αVβ3, human αVβ5, and human αVβ8. […]
Structures can show the parent of a compound that is named as a salt.
ASSAY_READOUT: IC50
A complete answer gives the number followed by the unit.

Entry CC1(CCCCc2ccc3c(n2)NCCC3)CN([C@@H](CC(=O)O)c2cnc3ccccc3c2)C1 [Example 159] : reported IC50 = ?
1.5 nM

// IC50 lookup, key: Cc1ncc(C(CC(=O)O)N2CC3(CC(Cc4ccc5c(n4)NCCC5)C3)C2)cn1 (stereo not drawn) [Example 209]
6.8 nM

Value lookup for IC50; key = O=C(C[C@H](NC(=O)OCc1ccccc1)C(=O)O)NC1CC(CCc2ccc3c(n2)NCCC3)C1 (stereo partly drawn) [Example 64]
4 nM

Recorded IC50 of Cc1nc2c(cc1CCN1CC3(CC(C(=O)N[C@@H](CC(=O)O)c4cc(Cl)cc(Cl)c4)C3)C1)CCCN2 [Example 4] , please.
25 nM

Please report the recorded IC50 for CN(C1CN(CCCc2ccc3c(n2)NCCC3)C1)[C@@H](CC(=O)O)c1cc(Cl)cc(Cl)c1 [Example 98] .
0.53 nM

IC50 lookup needed for COc1ncc([C@H](CC(=O)O)NC(=O)N2CC(CCc3ccc4c(n3)NCCC4)C2)cn1 [Example 123] , thanks.
4.3 nM

What does the data say about its IC50? Entry: O=C(O)C[C@@H](c1ccc(F)c(F)c1)N1CC(CCCCc2ccc3c(n2)NCCC3)C1=O (stereo partly drawn) [Example 113]
12 nM

What does the data say about its IC50? Entry: Cc1cc(C)c(S(=O)(=O)N[C@@H](CNC(=O)C2CN(CCCc3ccc4c(n3)NCCC4)C2)C(=O)O)c(C)c1 [Example 14]
0.7 nM

So what does the record say about IC50 for COc1ccc(C(CC(=O)O)N2CC(OCCCc3ccc4c(n3)NCCC4)C2)cn1 (stereo not drawn) [Example 134, TFA] ?
4.6 nM

For the compound shown here, COc1ccc([C@H](CC(=O)O)NC(=O)[C@H]2C[C@@H](Cc3ccc4c(n3)NCCC4)C2)cc1F [Example 201] , give the reported IC50.
3.2 nM

What IC50 value was documented for this compound, O=C(O)CC(NC(=O)[C@H]1C[C@H](CCc2ccc3c(n2)NCCC3)C1)c1cnc(C(F)(F)F)nc1 (single isomer, unassigned) [Example 194] ?
21 nM

Requested read-out: IC50. Entry: O=C(O)C[C@@H](c1cc(F)cc(F)c1)N1CC(CCCCc2ccc3c(n2)NCCC3)C1=O (stereo partly drawn) [Example 71]
1.5 nM

Entry under review: COc1ccc([C@H](CC(=O)O)NC(=O)C2(F)CN(CCc3ccc4c(n3)NCCC4)C2)cn1 [Example 46] . Reported IC50?
0.6 nM

IC50 for O=C(O)C[C@H](NC1CN(CCCc2ccc3c(n2)NCCC3)C1)c1cc(Cl)cc(Cl)c1 [Example 74] ?
0.5 nM

What IC50 value was documented for this compound, COc1ccc(C(CC(=O)O)C2CC(CCCCc3ccc4c(n3)NCCC4)C2)cn1 (stereo not drawn) [Example 138] ?
3.2 nM

The reported measurements were obtained from patent US11639353B2.
